compounds and their reported MIC
test system: Escherichia coli; assay: Antimicrobial activity against Escherichia coli ATCC 9637 after 24 hrs by standard broth microdilution method; assay type: functional; settings: ATCC 9637, 24 h
The reply should be a number in µg/mL, with the unit left off.

Clc1cccc(/N=C(\NCCCNc2ccnc3cc(Cl)ccc23)Nc2ccc(Oc3cc(Cl)ccc3Cl)cc2)c1 = 6.25
COc1ccc(Oc2ccccc2N/C(=N/c2cccc(Cl)c2)NCCCCNc2ccnc3cc(Cl)ccc23)cc1 = 12.5
COC(=O)/C(C)=C/c1ccc(Oc2ccc(N/C(=N/c3ccc(Cl)cc3)NCCNc3ccnc4cc(Cl)ccc34)cc2)cc1 = 12.5

Now consider the entry below.
Q. Could you please provide reported MIC for Clc1cccc(/N=C(\NCCCCNc2ccnc3cc(Cl)ccc23)Nc2ccccc2Oc2cc(Cl)ccc2Cl)c1 ? Thanks!
A. 12.5

---

test: Selectivity index, ratio of IC50 for african green monkey Vero cells to IC50 for chloroquine-sensitive Plasmodium falciparum 3D7; format: toxicity, cell-based; details: read-out: Ratio IC50
reportedEndpoint: selectivity ratio
No unit in the answer, only the number.

COC(=O)/C(C)=C/c1ccc(Oc2ccc(N/C(=N/c3ccc(Cl)cc3)NCCNc3ccnc4cc(Cl)ccc34)cc2)cc1 = 69.2
Clc1ccc(/N=C(\NCCCCNc2ccnc3cc(Cl)ccc23)Nc2ccccc2Oc2cc(Cl)ccc2Cl)cc1 = 11
COc1ccc(Oc2ccc(N/C(=N/c3cccc(Cl)c3)NCCCNc3ccnc4cc(Cl)ccc34)cc2)cc1 = 158

// next entry
Q. State, in one line, measured selectivity ratio of Clc1cccc(/N=C(\NCCCNc2ccnc3cc(Cl)ccc23)Nc2ccccc2Oc2cc(Cl)ccc2Cl)c1
A. 18.7

---

system: Plasmodium falciparum; assay: Antiplasmodial activity against chloroquine-resistant Plasmodium falciparum K1 infected after 72 hrs by Malaria SYBR Green I-staining based fluorescence assay; assay type: functional, organism-based; details: K1, 72 h
reportedEndpoint: pIC50
// pIC50 here means minus log10 of the molar concentration (mol/L)

Before answering, review these 4 worked examples.
COc1ccc(Oc2ccc(N/C(=N/c3ccccc3)NCCCCNc3ccnc4cc(Cl)ccc34)cc2)cc1 = 7.04
COC(=O)/C(C)=C/c1ccc(Oc2ccc(N/C(=N/c3cccc(Cl)c3)NCCCNc3ccnc4cc(Cl)ccc34)cc2)cc1 = 7.15
Clc1ccc(Cl)c(Oc2ccccc2N/C(=N/c2ccccc2)NCCNc2ccnc3cc(Cl)ccc23)c1 = 7.02
Clc1ccc(Cl)c(Oc2ccccc2N/C(=N/c2ccccc2)NCCCNc2ccnc3cc(Cl)ccc23)c1 = 6.75

# evaluate next
Q. Consider the compound COC(=O)/C(C)=C/c1ccc(Oc2ccccc2N/C(=N/c2ccccc2)NCCCCNc2ccnc3cc(Cl)ccc23)cc1 and give its recorded pIC50.
A. 6.85

---

test system: Escherichia coli; assay: Antimicrobial activity against Escherichia coli ATCC 9637 after 24 hrs by standard broth microdilution method; format: functional; conditions: ATCC 9637, 24 h
reportedEndpoint: MIC

Recorded results for 4 compounds are shown here.
COC(=O)/C(C)=C/c1ccc(Oc2ccccc2N/C(=N/c2ccccc2)NCc2ccccc2)cc1 = > 50 µg/mL
Clc1ccc(Cl)c(Oc2ccccc2N/C(=N/c2ccccc2)NCCCNc2ccnc3cc(Cl)ccc23)c1 = 12.5 µg/mL
COC(=O)/C(C)=C/c1ccc(Oc2ccccc2N/C(=N/c2ccccc2)NCCCCNc2ccnc3cc(Cl)ccc23)cc1 = > 50 µg/mL
COc1ccc(Oc2ccc(N/C(=N/c3cccc(Cl)c3)NCCNc3ccnc4cc(Cl)ccc34)cc2)cc1 = 12.5 µg/mL

Q. Give the value of MIC reported for the following: Clc1ccc(/N=C(\NCCCCNc2ccnc3cc(Cl)ccc23)Nc2ccccc2Oc2cc(Cl)ccc2Cl)cc1
A. > 50 µg/mL

Q. State its MIC: COC(=O)/C(C)=C/c1ccc(Oc2ccc(N/C(=N/c3ccc(Cl)cc3)NCCCNc3ccnc4cc(Cl)ccc34)cc2)cc1
A. 12.5 µg/mL

Q. Return reported MIC. Input compound: Clc1ccc(/N=C(\NCCNc2ccnc3cc(Cl)ccc23)Nc2ccc(Oc3cc(Cl)ccc3Cl)cc2)cc1
A. 6.25 µg/mL

Q. Recall and state the measured MIC for COC(=O)/C(C)=C/c1ccc(Oc2ccccc2N/C(=N/c2cccc(Cl)c2)NCCCNc2ccnc3cc(Cl)ccc23)cc1 .
A. 6.25 µg/mL

Q. Output MIC of Clc1ccc(Cl)c(Oc2ccccc2N/C(=N/c2ccccc2)NCCCCNc2ccnc3cc(Cl)ccc23)c1
A. 25 µg/mL

Q. Please report the measured MIC for COc1ccc(Oc2ccc(N/C(=N/c3ccccc3)NCCCNc3ccnc4cc(Cl)ccc34)cc2)cc1
A. 6.25 µg/mL
